// values below are reported IC50
Biological target: AKT (Homo sapiens)
Construct: Kinases are expressed as either kinase domains or full length constructs; made in house
Sequence (Q9Y243 whole entry, the tested form may be a part): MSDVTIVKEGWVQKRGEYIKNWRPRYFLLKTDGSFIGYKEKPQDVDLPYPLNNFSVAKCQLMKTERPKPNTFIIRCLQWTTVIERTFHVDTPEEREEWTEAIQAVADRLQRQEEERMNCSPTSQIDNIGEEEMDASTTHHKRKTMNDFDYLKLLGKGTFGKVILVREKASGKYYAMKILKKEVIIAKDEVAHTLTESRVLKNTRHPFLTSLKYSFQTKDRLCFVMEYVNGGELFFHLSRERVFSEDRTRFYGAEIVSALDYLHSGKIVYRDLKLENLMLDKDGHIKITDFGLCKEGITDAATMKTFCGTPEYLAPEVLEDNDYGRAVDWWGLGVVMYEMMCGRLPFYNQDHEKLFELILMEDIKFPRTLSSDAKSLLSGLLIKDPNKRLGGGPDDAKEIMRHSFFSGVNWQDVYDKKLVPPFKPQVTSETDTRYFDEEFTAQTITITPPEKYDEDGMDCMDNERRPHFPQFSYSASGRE
Test: Kinase inhibition assay (33P transfer), AKT
Type: biochemical
Settings: Table 2, kinase inhibition class; read-out: AKT3-1
From the text: The inhibitor compounds described herein are screened in the following manner. […] Kinases are expressed as either kinase domains or full length constructs fused to glutathione S-transferase (GST) or polyHistidine tagged fusion proteins in either E. colior Baculovirus-High Five expression systems. […]

Some entries whose results are on file:
molecule | endpoint.value
COc1cc(Nc2ncnc(Nc3ccc(-c4ccccc4)cc3)n2)cc(OC)c1OC [Compound 100] | 5.59 to 8.15 µM
O=C(O)Cc1cccc(Nc2ncnc(Nc3cccc(Br)c3)n2)c1 [Compound 541] | > 11.2 µM
COc1ccc2c(ccn2-c2ncnc(Nc3cc(OC)c(OC)c(OC)c3)n2)c1 [Compound 196] | > 11 µM
C=CCNC(=O)c1ccc(-c2cc(Nc3ncnc(Nc4cc(OC)c(OC)c(OC)c4)n3)[nH]n2)cc1 [Compound 1005] | > 8.95 µM
CC(C)(C)OC(=O)NCc1cccc(Nc2ncnc(Nc3cc(-c4ccco4)n[nH]3)n2)c1 [Compound 985] | > 10 µM

// query If you can, please state the reported IC50 value of COc1ccc(Nc2ncnc(NCCCN3CCN(C)CC3)n2)cc1OC [Compound 786] .
// result > 11.6 µM

// query Fill in: IC50 of COc1cc(Nc2ncnc(Nc3cc(OC)c(OC)c(OC)c3)n2)ccc1OCCN1CCOCC1 [Compound 601] is ___
// result > 8.78 µM

// query What measured IC50 goes with O=C(Nc1ccc(Nc2ncnc(-n3c(=O)[nH]c4ccccc43)n2)cc1)O[C@@H]1CCOC1 [Compound 454] ?
// result > 10.4 µM
